- TEST SYSTEM: horseradish peroxidase (HRP) tagged delF508-CFTR (Homo sapiens, UniProt P13569, DEL508-508)
- Construct: expressed in transfected cells
- Sequence (P13569 with tags, fused parts or gaps DEL508-508): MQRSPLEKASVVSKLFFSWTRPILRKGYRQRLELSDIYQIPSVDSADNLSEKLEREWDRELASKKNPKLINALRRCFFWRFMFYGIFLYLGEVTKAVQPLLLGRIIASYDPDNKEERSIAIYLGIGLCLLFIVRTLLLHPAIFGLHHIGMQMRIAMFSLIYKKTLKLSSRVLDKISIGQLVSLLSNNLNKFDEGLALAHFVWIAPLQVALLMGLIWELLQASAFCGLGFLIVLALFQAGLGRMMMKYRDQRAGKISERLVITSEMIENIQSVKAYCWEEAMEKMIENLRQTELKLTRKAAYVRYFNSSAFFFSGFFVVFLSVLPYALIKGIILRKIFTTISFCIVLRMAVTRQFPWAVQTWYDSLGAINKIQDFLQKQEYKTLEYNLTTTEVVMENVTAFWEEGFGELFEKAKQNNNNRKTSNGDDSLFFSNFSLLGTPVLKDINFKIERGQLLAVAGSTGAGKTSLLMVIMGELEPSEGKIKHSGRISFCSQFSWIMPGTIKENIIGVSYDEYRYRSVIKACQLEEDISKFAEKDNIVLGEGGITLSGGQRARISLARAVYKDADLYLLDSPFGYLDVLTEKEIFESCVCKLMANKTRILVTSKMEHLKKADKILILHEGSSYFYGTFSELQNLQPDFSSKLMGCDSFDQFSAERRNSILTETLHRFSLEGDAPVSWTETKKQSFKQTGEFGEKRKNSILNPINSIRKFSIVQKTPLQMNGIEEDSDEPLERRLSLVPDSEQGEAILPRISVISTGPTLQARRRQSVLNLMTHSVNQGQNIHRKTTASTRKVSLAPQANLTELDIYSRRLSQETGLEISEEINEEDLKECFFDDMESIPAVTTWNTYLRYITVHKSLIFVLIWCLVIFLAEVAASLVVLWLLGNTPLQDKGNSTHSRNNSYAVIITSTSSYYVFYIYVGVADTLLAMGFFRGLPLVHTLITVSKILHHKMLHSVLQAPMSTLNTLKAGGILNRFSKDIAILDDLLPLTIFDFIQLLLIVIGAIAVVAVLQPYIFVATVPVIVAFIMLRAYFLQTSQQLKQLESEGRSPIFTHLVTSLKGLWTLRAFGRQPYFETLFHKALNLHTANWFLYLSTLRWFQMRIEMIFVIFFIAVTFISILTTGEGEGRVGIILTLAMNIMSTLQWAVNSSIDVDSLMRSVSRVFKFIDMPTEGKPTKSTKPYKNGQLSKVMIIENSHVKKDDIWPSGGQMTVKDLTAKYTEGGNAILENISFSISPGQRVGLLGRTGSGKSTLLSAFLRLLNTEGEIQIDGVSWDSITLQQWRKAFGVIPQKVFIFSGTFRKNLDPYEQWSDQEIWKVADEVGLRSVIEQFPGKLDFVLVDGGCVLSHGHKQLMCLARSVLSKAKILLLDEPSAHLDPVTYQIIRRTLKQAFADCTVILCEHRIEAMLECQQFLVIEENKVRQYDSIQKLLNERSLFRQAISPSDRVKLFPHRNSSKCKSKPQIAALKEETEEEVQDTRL
- ASSAY EXPLANATION: Measurement of delF508-CFTR-HRP surface expression in CFBE41o- cells;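 also: percent efficacy relative to reference corrector lumacaftor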
- Type: cell-based
- CONDITION: delF508-CFTR-HRP surface expression, CFBE41o- cells; read-out: DelF508-CFTR-HRP Amax %
ENDPOINT: Emax (%)

STRUCTURE STRING | ENDPOINT | MEASURED NUMBER
Cc1ccc(F)cc1-c1nc(NS(=O)(=O)c2cccc(N3CC(O)C3)n2)ccc1C(F)(F)F | Emax | 902

A = N#Cc1ccccc1-c1nc(NS(=O)(=O)c2cccc(N)n2)ccc1Cl
B = Cc1ccccc1-c1nc(NS(=O)(=O)c2cccc(N3CC[C@H](C(=O)O)C3)n2)ccc1C(F)(F)F
C = Cc1ccccc1-c1nc(NS(=O)(=O)c2cccc(N3C[C@H]4C[C@H]4[C@H]3C(=O)O)n2)ccc1C(F)(F)F
Query: Ascending by Emax, please. Output spec: a listing of the labels in the requested order.
Reply: A, B, C
(A: 50%, B: 145%, C: 278%)
